Target: Fuc(a1-3)[Gal(b1-4)]GlcNAc(b1-4)Gal(b1-4)[Fuc(a1-3)]GlcNAc
Assay: glycan array binding signal (z-score within array); higher = stronger binding
Details: glycan notation: IUPAC condensed, linker removed
This is one part of a sample in which the strongest signals are shown more often than they occur.
Each record here notes measured glycan array binding signal (z-score).
measured parameter: glycan array binding signal (z-score)

[[record]]
binder = "L-Selectin (Homo sapiens), P14151 (protein) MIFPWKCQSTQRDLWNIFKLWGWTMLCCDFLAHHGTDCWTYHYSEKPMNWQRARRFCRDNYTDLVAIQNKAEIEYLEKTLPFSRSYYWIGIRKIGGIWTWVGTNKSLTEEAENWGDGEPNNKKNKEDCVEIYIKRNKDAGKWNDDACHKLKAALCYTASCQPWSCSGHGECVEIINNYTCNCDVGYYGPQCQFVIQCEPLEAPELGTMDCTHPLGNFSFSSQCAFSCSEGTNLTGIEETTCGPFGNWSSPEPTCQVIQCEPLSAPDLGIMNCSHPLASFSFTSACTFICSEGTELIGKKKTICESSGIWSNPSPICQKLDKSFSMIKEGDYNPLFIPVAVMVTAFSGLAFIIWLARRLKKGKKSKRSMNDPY"
value = -0.145

[[record]]
binder = "HHL-2 (Homo sapiens), P07307 (protein) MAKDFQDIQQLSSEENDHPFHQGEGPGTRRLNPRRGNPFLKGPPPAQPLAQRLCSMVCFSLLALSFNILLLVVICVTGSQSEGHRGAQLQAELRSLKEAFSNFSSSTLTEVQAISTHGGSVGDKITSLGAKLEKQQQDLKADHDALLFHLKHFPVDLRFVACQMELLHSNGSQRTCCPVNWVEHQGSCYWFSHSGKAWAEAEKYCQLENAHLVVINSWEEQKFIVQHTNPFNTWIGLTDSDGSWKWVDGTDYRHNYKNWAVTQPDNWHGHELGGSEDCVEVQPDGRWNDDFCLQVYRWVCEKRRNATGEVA"
value = -0.334

[[record]]
binder = "PpFlo3 (Pichia pastoris) (protein) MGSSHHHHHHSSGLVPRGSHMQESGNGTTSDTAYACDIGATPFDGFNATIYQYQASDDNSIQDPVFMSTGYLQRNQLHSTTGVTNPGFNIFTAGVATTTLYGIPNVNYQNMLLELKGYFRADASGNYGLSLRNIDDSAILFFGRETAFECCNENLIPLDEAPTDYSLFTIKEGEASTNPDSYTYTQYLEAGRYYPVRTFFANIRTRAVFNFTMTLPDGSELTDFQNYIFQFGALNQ"
value = 2.75

[[record]]
binder = "GSL-I (Griffonia simplicifolia) (protein) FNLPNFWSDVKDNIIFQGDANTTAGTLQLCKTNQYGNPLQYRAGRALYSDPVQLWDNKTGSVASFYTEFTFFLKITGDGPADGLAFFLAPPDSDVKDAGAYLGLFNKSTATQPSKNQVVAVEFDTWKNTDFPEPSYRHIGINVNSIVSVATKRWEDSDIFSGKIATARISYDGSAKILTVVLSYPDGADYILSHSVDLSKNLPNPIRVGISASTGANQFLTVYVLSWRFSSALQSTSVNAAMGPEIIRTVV"
value = -0.311

[[record]]
binder = "DC-SIGN (Canis lupus), XP_853402 (protein) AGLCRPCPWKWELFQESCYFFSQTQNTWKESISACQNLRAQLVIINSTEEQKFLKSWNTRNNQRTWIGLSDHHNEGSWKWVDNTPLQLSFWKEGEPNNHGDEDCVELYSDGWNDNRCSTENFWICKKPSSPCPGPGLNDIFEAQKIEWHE"
value = 0.044

[[record]]
binder = "HMGB1 (Homo sapiens), P09429 (protein) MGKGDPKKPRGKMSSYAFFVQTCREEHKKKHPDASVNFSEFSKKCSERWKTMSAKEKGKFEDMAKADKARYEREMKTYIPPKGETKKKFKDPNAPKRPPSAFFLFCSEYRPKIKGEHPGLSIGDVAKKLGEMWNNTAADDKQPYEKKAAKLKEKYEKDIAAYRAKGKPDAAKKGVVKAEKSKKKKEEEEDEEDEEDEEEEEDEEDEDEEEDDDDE"
value = -0.39

